- system.under.test: PYL8 (Arabidopsis thaliana)
- Construct: 6X-His; made in house; host or cells: E. coli BL21[DE3]pLysS
- Sequence (Q9FGM1 whole entry, one chain of several): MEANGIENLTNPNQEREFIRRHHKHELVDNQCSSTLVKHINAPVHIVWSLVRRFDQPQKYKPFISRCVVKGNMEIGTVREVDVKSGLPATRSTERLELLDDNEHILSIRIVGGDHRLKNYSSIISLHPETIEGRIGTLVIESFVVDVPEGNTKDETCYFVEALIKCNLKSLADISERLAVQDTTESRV
- test.method.notes: receptor-mediated PP2C (HAB1) inhibition in vitro assay
- Type: biochemical
- measurement.setup: compound at 25 μM; control without agonist = 100%
- Description: A family of 62 structurally related N-acyl sulfonamides (Tables I-V) were tested for ABA agonist activity using multiple receptor-mediated PP2C inhibition in vitro assays (Park et al., 2009). […] For these in vitro receptor assays, the compounds listed were tested in in vitro PP2C inhibition assays with 50 uM of the test compound except for ABA (10 uM). IC50s were calculated from dose curves, but only for selected compounds.
measure.name: PP2C Activity (25 μm) PYL8 (%)

1. CC(C)(C(=O)NS(=O)(=O)Cc1ccc(C#N)cc1)c1ccc2c(c1)OCCO2 99
2. N#Cc1ccc(CS(=O)(=O)NC(=O)C2(c3ccccc3)CCN(S(=O)(=O)c3ccccc3)CC2)cc1 101
3. COc1ccc(C(C)(C)C(=O)NS(=O)(=O)Cc2ccc(C#N)cc2)cc1OC 98
4. N#Cc1ccc(CS(=O)(=O)NC(=O)C2(c3ccc(C(F)(F)F)cc3)CC2)cc1 74
5. N#Cc1ccc(CS(=O)(=O)NC(=O)C2(c3cccc(Cl)c3)CCOCC2)cc1 84
6. N#Cc1ccc(CS(=O)(=O)NC(=O)C2(c3ccccc3)CC2)cc1 77
7. CC(C)(C(=O)NS(=O)(=O)Cc1ccccc1)c1ccccc1 83
8. CC(C)(C(=O)NS(=O)(=O)Cc1ccccc1C#N)c1ccccc1 89

---

- system.under.test: PYL9 (Arabidopsis thaliana)
- Construct: 6X-His; made in house; host or cells: E. coli BL21[DE3]pLysS
- Sequence (Q84MC7 1-187): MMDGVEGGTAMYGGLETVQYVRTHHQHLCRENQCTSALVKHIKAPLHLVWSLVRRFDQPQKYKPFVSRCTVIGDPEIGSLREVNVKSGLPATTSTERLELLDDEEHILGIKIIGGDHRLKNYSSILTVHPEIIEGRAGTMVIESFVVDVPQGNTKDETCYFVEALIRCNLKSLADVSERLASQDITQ
- Sequence (Q9CAJ0 23-511 partner): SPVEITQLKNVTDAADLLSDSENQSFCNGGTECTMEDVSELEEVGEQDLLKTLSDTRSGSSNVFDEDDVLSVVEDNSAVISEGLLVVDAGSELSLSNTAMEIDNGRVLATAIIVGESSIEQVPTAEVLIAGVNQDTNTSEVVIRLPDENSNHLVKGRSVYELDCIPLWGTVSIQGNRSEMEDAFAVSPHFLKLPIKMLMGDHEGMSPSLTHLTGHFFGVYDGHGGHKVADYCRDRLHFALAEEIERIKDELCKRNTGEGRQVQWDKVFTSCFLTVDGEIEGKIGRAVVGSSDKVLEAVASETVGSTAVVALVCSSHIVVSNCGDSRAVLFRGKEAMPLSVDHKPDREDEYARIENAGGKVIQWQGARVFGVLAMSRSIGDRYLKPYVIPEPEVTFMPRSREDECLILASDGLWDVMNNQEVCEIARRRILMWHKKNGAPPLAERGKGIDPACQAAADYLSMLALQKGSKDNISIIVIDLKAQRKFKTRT
- test.method.notes: receptor-mediated PP2C (HAB1) inhibition in vitro assay
- Format: biochemical
- measurement.setup: Table XII-B; calculated from dose curves; read-out: PP2C Activity (IC50 in uM) PYL9
API: label(entry) gives met if the entry's IC50 is strictly smaller than 0.1 µM; on equality or larger values it gives not met.

molecule	assigned.class
O=C(NS(=O)(=O)Cc1ccc(F)cc1)C1(c2ccccc2)CCCCC1 [Compound 64]	not met
N#Cc1ccc(CS(=O)(=O)NC(=O)C(C2CCCCC2)C2CCCCC2)cc1 [Compound 73]	not met
CC(C)COC(=O)NS(=O)(=O)Cc1ccc(C#N)cc1 [Compound 65]	not met
N#Cc1ccc(CS(=O)(=O)NC(=O)C2(c3ccccc3)CCCCC2)cc1 [Compound 69]	not met
N#Cc1ccc(CS(=O)(=O)NC(=O)C2(c3cccs3)CCCCC2)cc1 [Compound 75]	met
N#Cc1ccc(CS(=O)(=O)NC(=O)C2(c3ccsc3)CCCCC2)cc1Br [Compound 106]	met
CC1CCC(C(=O)NS(=O)(=O)Cc2ccc(C#N)cc2)(c2ccc(F)cc2)CC1 (stereo not drawn) [Compound 67]	not met
N#Cc1ccc(CS(=O)(=O)NC(=O)C(c2ccccc2)c2ccccc2)cc1 [Compound 71]	not met
CC1(C)CCC(C(=O)NS(=O)(=O)Cc2ccc(C#N)cc2)(c2ccc(F)cc2)CC1 [Compound 68]	not met

Values from patent US10757937B2
